Test system: SW1990
Assay: Antitumor activity against human SW1990 cells assessed as inhibition of cell growth measured after 48 hrs by MTT assay
Assay type: functional, cell-based
Settings: SW1990, 48 h
pIC50: −log10 of the molar value.
Cut-off 5 on pIC50, inclusive. At or above means rule met; below means rule not met.

For orientation, consider the following solved cases.
Does the reported pIC50 for `CC[C@@]1(OC(=O)NCCOCCO[C@@H]2O[C@H](COC(C)=O)[C@H](OC(C)=O)[C@H](OC(C)=O)[C@H]2OC(C)=O)C(=O)OCc2c1cc1n(c2=O)Cc2cc3ccccc3nc2-1` fall at or above the 5 mark?
rule not met

Does the reported pIC50 for `CC[C@@]1(OC(=O)NCCOCCOCCO[C@@H]2O[C@H](CO)[C@@H](O)[C@H](OC(N)=O)[C@@H]2O)C(=O)OCc2c1cc1n(c2=O)Cc2cc3ccccc3nc2-1` fall at or above the 5 mark?
rule not met

Does the reported pIC50 for `CC[C@@]1(OC(=O)NCCO[C@@H]2O[C@H](COC(C)=O)[C@@H](OC(C)=O)[C@H](OC(C)=O)[C@H]2OC(C)=O)C(=O)OCc2c1cc1n(c2=O)Cc2cc3ccccc3nc2-1` fall at or above the 5 mark?
rule not met

Does the reported pIC50 for `CC[C@@]1(O)C(=O)OCc2c1cc1n(c2=O)Cc2cc3ccccc3nc2-1` fall at or above the 5 mark?
rule met

Does the reported pIC50 for `CC[C@@]1(OC(=O)NCCOCCO[C@@H]2O[C@H](CO)[C@@H](O)[C@H](OC(N)=O)[C@@H]2O)C(=O)OCc2c1cc1n(c2=O)Cc2cc3ccccc3nc2-1` fall at or above the 5 mark?
rule met

New cases:
Does the reported pIC50 for `CC[C@@]1(OC(=O)NCCOCCOCCO[C@@H]2O[C@H](COC(C)=O)[C@@H](OC(C)=O)[C@H](OC(C)=O)[C@@H]2OC(C)=O)C(=O)OCc2c1cc1n(c2=O)Cc2cc3ccccc3nc2-1` fall at or above the 5 mark?
rule not met

Does the reported pIC50 for `CCc1c2c(nc3ccc(OC(=O)N4CCC(N5CCCCC5)CC4)cc13)-c1cc3c(c(=O)n1C2)COC(=O)[C@]3(O)CC` fall at or above the 5 mark?
rule not met

Does the reported pIC50 for `CC[C@@]1(OC(=O)NCCO[C@@H]2O[C@H](COC(C)=O)[C@H](OC(C)=O)[C@H](OC(C)=O)[C@H]2OC(C)=O)C(=O)OCc2c1cc1n(c2=O)Cc2cc3ccccc3nc2-1` fall at or above the 5 mark?
rule not met
